# Tested on: A. baumannii clinical isolates
# Assay Text: microbe, parasite or virus in culture
# Assay type: cell-based
# Recorded Conditions: Acinetobacter baumannii, isolate ARC6937 (IHMA 1562926), Spain, UTI, 2017, read-out: MIC
# Protocol: The following report describes the genomic analysis of these isolates for likely resistance mechanisms. Biochemical analysis of purified PBP3 and phenotypic analyses of both clinical and isogenic strains were also conducted to determine the relative impact of key resistance determinants to SUL-DUR antibacterial activity. […]
In this section we review reported MIC values for a set of molecules.
Measured Quantity: MIC (µg/mL)

CN(C)c1cc(NC(=O)CNC(C)(C)C)c(O)c2c1C[C@H]1C[C@H]3[C@H](N(C)C)C(O)=C(C(N)=O)C(=O)[C@@]3(O)C(O)=C1C2=O ... 1
C[C@@H](O)[C@H]1C(=O)N2C(C(=O)O)=C(S[C@@H]3CN[C@H](C(=O)N(C)C)C3)[C@H](C)[C@H]12 ... 64
C[C@@H](O)[C@H]1C(=O)N2C(C(=O)O)=C(SCCN=CN)C[C@H]12 ... 64

* * *

# Tested on: A. baumannii clinical isolates
# Assay Text: microbe, parasite or virus in culture
# Type: cell-based
# Recorded Conditions: Acinetobacter baumannii, isolate ARC6954 (IHMA 1838192), Guatemala, SSSI, 2018, read-out: MIC
In this section we review reported MIC values for a set of molecules.
Measured Quantity: MIC

C[C@@H](O)[C@H]1C(=O)N2C(C(=O)O)=C(S[C@@H]3CN[C@H](C(=O)N(C)C)C3)[C@H](C)[C@H]12 ... > 64 µg/mL
CN(C)c1cc(NC(=O)CNC(C)(C)C)c(O)c2c1C[C@H]1C[C@H]3[C@H](N(C)C)C(O)=C(C(N)=O)C(=O)[C@@]3(O)C(O)=C1C2=O ... 0.5 µg/mL
CC1(C)[C@H](C(=O)O)N2C(=O)C[C@H]2S1(=O)=O ... > 64 µg/mL
C[C@@H](O)[C@H]1C(=O)N2C(C(=O)O)=C(SCCN=CN)C[C@H]12 ... > 64 µg/mL

* * *

In this section we review reported MIC values for a set of compounds.
# Tested on: A. baumannii clinical isolates
# Assay Text: microbe, parasite or virus in culture
# Type: cell-based
# Recorded Conditions: Acinetobacter baumannii, isolate ARC7163 (IHMA 2477704), United States, BSI, 2021, read-out: MIC
Measured Quantity: MIC

CC1(C)[C@H](C(=O)O)N2C(=O)C[C@H]2S1(=O)=O [sulbactam] ... > 64 µg/mL
C[C@@H](O)[C@H]1C(=O)N2C(C(=O)O)=C(SCCN=CN)C[C@H]12 [imipenem] ... > 64 µg/mL
CN(C)c1cc(NC(=O)CNC(C)(C)C)c(O)c2c1C[C@H]1C[C@H]3[C@H](N(C)C)C(O)=C(C(N)=O)C(=O)[C@@]3(O)C(O)=C1C2=O [TIG, tigecycline] ... 1 µg/mL
C[C@@H](O)[C@H]1C(=O)N2C(C(=O)O)=C(S[C@@H]3CN[C@H](C(=O)N(C)C)C3)[C@H](C)[C@H]12 [meropenem] ... > 64 µg/mL

* * *

# System: A. baumannii clinical isolates
# Assay Text: microbe, parasite or virus in culture
# Type: cell-based
# Recorded Conditions: Acinetobacter baumannii, isolate ARC6647 (IHMA 1386786), Argentina, RTI, 2016, read-out: MIC
Measured Quantity: MIC

C[C@@H](O)[C@H]1C(=O)N2C(C(=O)O)=C(SCCN=CN)C[C@H]12 ... > 64 µg/mL
CC1(C)[C@H](C(=O)O)N2C(=O)C[C@H]2S1(=O)=O ... > 64 µg/mL
C[C@@H](O)[C@H]1C(=O)N2C(C(=O)O)=C(S[C@@H]3CN[C@H](C(=O)N(C)C)C3)[C@H](C)[C@H]12 ... > 64 µg/mL
CN(C)c1cc(NC(=O)CNC(C)(C)C)c(O)c2c1C[C@H]1C[C@H]3[C@H](N(C)C)C(O)=C(C(N)=O)C(=O)[C@@]3(O)C(O)=C1C2=O ... 0.12 µg/mL

* * *

# Test system: isogenic A. baylyi ADP1 panel encoding wildtype or mutant PBP3
# Assay Text: Broth microdilution MIC, isogenic A. baylyi panel (PBP3 variants with or without overexpressed β-lactamases)
# Format: cell-based
# Recorded Conditions: Acinetobacter baylyi, A. baylyi; PBP3 H370Y; overexpressed OXA-66
In this section we review reported MIC values for a set of molecules.
Measured Quantity: MIC

CC1(C)[C@H](C(=O)O)N2C(=O)C[C@H]2S1(=O)=O [sulbactam] ... 4 µg/mL
C[C@@H](O)[C@H]1C(=O)N2C(C(=O)O)=C(SCCN=CN)C[C@H]12 [imipenem] ... 0.06 µg/mL
C[C@H]1[C@H](NC(=O)/C(=N\OC(C)(C)C(=O)O)c2csc(N)n2)C(=O)N1S(=O)(=O)O [aztreonam] ... 64 µg/mL
C[C@@H](O)[C@H]1C(=O)N2C(C(=O)O)=C(S[C@@H]3CN[C@H](C(=O)N(C)C)C3)[C@H](C)[C@H]12 [meropenem] ... 0.5 µg/mL

* * *

In this section we review reported MIC values for a set of molecules.
# Tested on: A. baumannii clinical isolates
# Assay Text: microbe, parasite or virus in culture
# Assay type: cell-based
# Recorded Conditions: Acinetobacter baumannii, isolate ARC6648 (IHMA 1407634), Spain, RTI, 2016, read-out: MIC
Measured Quantity: MIC (µg/mL)

CC1(C)[C@H](C(=O)O)N2C(=O)C[C@H]2S1(=O)=O ... 64
CN(C)c1cc(NC(=O)CNC(C)(C)C)c(O)c2c1C[C@H]1C[C@H]3[C@H](N(C)C)C(O)=C(C(N)=O)C(=O)[C@@]3(O)C(O)=C1C2=O ... 1

* * *

# Tested on: A. baumannii clinical isolates
# Assay Text: microbe, parasite or virus in culture
# Format: cell-based
# Recorded Conditions: Acinetobacter baumannii, isolate ARC7089 (IHMA 2240345), Argentina, BSI, 2020, read-out: MIC
In this section we review reported MIC values for a set of compounds.
Measured Quantity: MIC (µg/mL)

CN(C)c1cc(NC(=O)CNC(C)(C)C)c(O)c2c1C[C@H]1C[C@H]3[C@H](N(C)C)C(O)=C(C(N)=O)C(=O)[C@@]3(O)C(O)=C1C2=O [TIG, tigecycline] ... 1
C[C@@H](O)[C@H]1C(=O)N2C(C(=O)O)=C(SCCN=CN)C[C@H]12 [imipenem] ... 64
C[C@@H](O)[C@H]1C(=O)N2C(C(=O)O)=C(S[C@@H]3CN[C@H](C(=O)N(C)C)C3)[C@H](C)[C@H]12 [meropenem] ... 64

* * *

# Tested on: A. baumannii clinical isolates
# Assay Text: microbe, parasite or virus in culture
# Assay type: cell-based
# Recorded Conditions: Acinetobacter baumannii, isolate ARC7013 (IHMA 1962831), Argentina, RTI, 2019, read-out: MIC
Measured Quantity: MIC

C[C@@H](O)[C@H]1C(=O)N2C(C(=O)O)=C(SCCN=CN)C[C@H]12 [imipenem] ... > 64 µg/mL
CN(C)c1cc(NC(=O)CNC(C)(C)C)c(O)c2c1C[C@H]1C[C@H]3[C@H](N(C)C)C(O)=C(C(N)=O)C(=O)[C@@]3(O)C(O)=C1C2=O [TIG, tigecycline] ... 0.12 µg/mL
CC1(C)[C@H](C(=O)O)N2C(=O)C[C@H]2S1(=O)=O [sulbactam] ... > 64 µg/mL
C[C@@H](O)[C@H]1C(=O)N2C(C(=O)O)=C(S[C@@H]3CN[C@H](C(=O)N(C)C)C3)[C@H](C)[C@H]12 [meropenem] ... > 64 µg/mL

* * *

In this section we review reported k inact/K i values for a set of compounds.
# System Tested: A. baumannii PBP3 Q488K
# Assay Text: Acylation rate constant (kinact/Ki), fluorescence anisotropy competition with BOCILLIN
# Recorded Conditions: average ± SD
Measured Quantity: k inact/K i

C[C@@H](O)[C@H]1C(=O)N2C(C(=O)O)=C(S[C@@H]3CN[C@H](C(=O)N(C)C)C3)[C@H](C)[C@H]12 [meropenem] ... 3,900 ± 200 ([2]) M^-1s^-1
C[C@H]1[C@H](NC(=O)/C(=N\OC(C)(C)C(=O)O)c2csc(N)n2)C(=O)N1S(=O)(=O)O [aztreonam] ... 460 ± 50 ([2]) M^-1s^-1
CC1(C)[C@H](C(=O)O)N2C(=O)C[C@H]2S1(=O)=O [sulbactam] ... 9.9 ± 0.3 ([2]) M^-1s^-1
C[C@@H](O)[C@H]1C(=O)N2C(C(=O)O)=C(SCCN=CN)C[C@H]12 [imipenem] ... 370 ± 20 ([2]) M^-1s^-1

* * *

In this section we review reported MIC values for a set of compounds.
# Test system: A. baumannii clinical isolates
# Assay Text: microbe, parasite or virus in culture
# Assay type: cell-based
# Recorded Conditions: Acinetobacter baumannii, isolate ARC6803 (IHMA 1589408), Belgium, UTI, 2017, read-out: MIC
Measured Quantity: MIC (mg/L)

C[C@@H](O)[C@H]1C(=O)N2C(C(=O)O)=C(SCCN=CN)C[C@H]12 ... 64
CN(C)c1cc(NC(=O)CNC(C)(C)C)c(O)c2c1C[C@H]1C[C@H]3[C@H](N(C)C)C(O)=C(C(N)=O)C(=O)[C@@]3(O)C(O)=C1C2=O ... 1

These data points were gathered from paper PMC10648852.
